This section presents compounds with their documented IC50 values.
system tested: dopamine uptake, synaptosomes from rat caudoputamen (Rattus norvegicus, UniProt P23977)
Construct: Synaptosomes for use in obtaining in vitro uptake data were prepared from hypothalamus or striatum by gently homogenizing the tissue; from tissue; host or cells: rat caudoputamen (striatum) synaptosomes
Sequence (P23977 whole entry): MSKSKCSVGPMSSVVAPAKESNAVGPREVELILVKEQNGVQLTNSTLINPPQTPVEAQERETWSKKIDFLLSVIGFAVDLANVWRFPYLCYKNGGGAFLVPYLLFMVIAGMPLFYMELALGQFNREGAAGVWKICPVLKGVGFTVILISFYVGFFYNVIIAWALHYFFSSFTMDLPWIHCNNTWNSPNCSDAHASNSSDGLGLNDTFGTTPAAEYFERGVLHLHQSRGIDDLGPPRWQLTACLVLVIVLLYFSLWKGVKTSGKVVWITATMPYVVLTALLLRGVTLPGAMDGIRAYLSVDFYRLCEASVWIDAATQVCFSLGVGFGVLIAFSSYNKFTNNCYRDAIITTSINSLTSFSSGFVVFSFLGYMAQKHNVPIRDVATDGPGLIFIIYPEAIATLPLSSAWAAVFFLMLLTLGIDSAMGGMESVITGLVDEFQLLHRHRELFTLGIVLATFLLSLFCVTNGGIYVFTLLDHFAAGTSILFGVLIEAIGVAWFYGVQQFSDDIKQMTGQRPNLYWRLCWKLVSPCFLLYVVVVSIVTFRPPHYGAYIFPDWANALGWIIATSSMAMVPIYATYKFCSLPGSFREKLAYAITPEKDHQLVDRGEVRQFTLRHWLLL
protocol: In vitro synaptosomal [3H]-dopamine uptake
Assay type: biochemical
protocol conditions: rat caudoputamen synaptosomes; read-out: IC50, [3H]-Dopamine Uptake
Give the value in µM but do not write µM after it.

compound: C[C@@H]1NC(C)(C)CO[C@@]1(O)c1cccc(Cl)c1 (single isomer, unassigned)
IC50 / µM: 9.3

Moving on to another compound below.
Task: Which IC50 reading was recorded for the compound CC(NC(C)(C)C)C(=O)c1cccc(Cl)c1.Cl (racemic) [Bupropion, hydrochloride] ?
Result: 1.9
